Provenance of the data: ChEMBL document CHEMBL1649119

# assay-explanation: Clearance in morbidly obese adult human at 4 mg/kg, iv administered as single dose 30 mins infusion
# Type: ADME, organism-based
# Set-up: dose 4 mg/kg, route intravenous
# condition-context: in vivo

molecular-string: CCCCCCCCCC(=O)N[C@@H](Cc1c[nH]c2ccccc12)C(=O)N[C@H](CC(N)=O)C(=O)N[C@@H](CC(=O)O)C(=O)N[C@@H]1C(=O)NCC(=O)N[C@@H](CCCN)C(=O)N[C@@H](CC(=O)O)C(=O)N[C@H](C)C(=O)N[C@@H](CC(=O)O)C(=O)NCC(=O)N[C@H](CO)C(=O)N[C@@H]([C@H](C)CC(=O)O)C(=O)N[C@@H](CC(=O)c2ccccc2N)C(=O)O[C@@H]1C
clearance, mL/min/kg: 0.13
